molecular target: DCAF1 WD40 domain (residues 1077-1390) (Homo sapiens); construct: DCAF1 WD40 domain (residues 1077-1390); experiment: DCAF1 binding assay by SPR (Biacore 8K+), DCAF1-3 KD; settings: 25 °C, read-out: DCAF1-3 SPR (KD)
Sequence (Q9Y4B6 1077-1390): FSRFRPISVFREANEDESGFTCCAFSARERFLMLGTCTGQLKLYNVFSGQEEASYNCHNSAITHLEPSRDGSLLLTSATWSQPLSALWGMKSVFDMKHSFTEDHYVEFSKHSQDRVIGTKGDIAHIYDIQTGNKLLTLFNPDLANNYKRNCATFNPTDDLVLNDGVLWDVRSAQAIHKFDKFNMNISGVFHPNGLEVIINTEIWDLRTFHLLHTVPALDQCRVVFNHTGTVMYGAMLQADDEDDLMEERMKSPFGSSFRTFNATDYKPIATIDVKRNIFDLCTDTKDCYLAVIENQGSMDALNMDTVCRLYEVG
pKd: −log10 of the molar value.

[
  {
    "compound": "N[C@@H](c1ccccc1)c1ccc(N2CCC[C@@H](Nc3cc(N4CCOCC4)ccn3)C2)cc1 [I-683]",
    "pKd": "4.00 to 5.00"
  },
  {
    "compound": "C=CC(=O)N(C)CCCCC1CCN(c2ccnc(N3CC[C@@H]4[C@H]3CCCN4c3cccc(F)c3)c2)CC1 [I-850]",
    "pKd": "> 5.00"
  },
  {
    "compound": "COc1ccc(N2CCOCC2)cc1N[C@@H]1CCCN(c2cccc(F)c2)C1 [I-121]",
    "pKd": "< 3.70"
  },
  {
    "compound": "Fc1cccc(N2C3CC[C@H]2CC[C@H]3Nc2nccc(N3CCOCC3)n2)c1 (stereo in doubt) [I-60]",
    "pKd": "3.70 to 4.00"
  },
  {
    "compound": "CCNC(=O)C[C@H](NC(=O)c1cn[nH]c1-c1ccccc1F)c1cccc(Cl)c1 [I-83]",
    "pKd": "4.00 to 5.00"
  },
  {
    "compound": "C[C@@H]1CCCN(c2ccnc(N[C@@H]3CCCN(c4cccc(F)c4)C3)c2)C1 [I-552]",
    "pKd": "4.00 to 5.00"
  },
  {
    "compound": "Cc1[nH]nc(C(=O)N[C@@H](CC(N)=O)c2cccc(Cl)c2)c1-c1ccccc1F [I-230]",
    "pKd": "< 3.70"
  },
  {
    "compound": "Cc1cccc(F)c1-c1c(C(=O)N[C@@H](CC(N)=O)c2cccc(Cl)c2)c[nH]c1Nc1cc(N2CCCCC2)ccn1 [I-744]",
    "pKd": "> 5.00"
  },
  {
    "compound": "C=CC(=O)N1CC2(CCN(c3ccnc(N[C@@H]4CCCN(c5cccc(F)c5)C4)c3)CC2)C1 [I-465]",
    "pKd": "< 3.70"
  },
  {
    "compound": "C=CC(=O)NC1CCN(c2ccnc(N[C@@H]3CCCN(c4cccc(F)c4)C3)c2)C1 (some centres unmarked) [I-456]",
    "pKd": "< 3.70"
  },
  {
    "compound": "c1cc(N2CCOCC2)cc(N[C@@H]2CCCN(c3ccc4c(c3)CCC4)C2)n1 [I-872]",
    "pKd": "< 3.70"
  },
  {
    "compound": "NC(=O)C[C@H](NC(=O)c1cn[nH]c1C1=CCOCC1)c1cccc(Cl)c1 [I-496]",
    "pKd": "4.00 to 5.00"
  },
  {
    "compound": "c1ccc(Cn2cc(N3CCC[C@@H](Nc4cc(N5CCOCC5)ccn4)C3)cn2)cc1 [I-420]",
    "pKd": "< 3.70"
  },
  {
    "compound": "C[C@@H]1CCCCN1c1ccnc(N[C@@H]2CCCN(c3cccc(F)c3)C2)c1 [I-568]",
    "pKd": "> 5.00"
  },
  {
    "compound": "NC(=O)C[C@H](NC(=O)c1cn[nH]c1-c1cc(CC(=O)O)ccc1F)c1cccc(Cl)c1 [I-285]",
    "pKd": "3.70 to 4.00"
  },
  {
    "compound": "C[C@H]1CCCCN1c1ccnc(N[C@@H]2CCCN(c3cccc(F)c3)C2)c1 [I-569]",
    "pKd": "> 5.00"
  },
  {
    "compound": "CCN1CCN(c2ccnc(N[C@@H]3CCCN(c4cccc(F)c4)C3)n2)CC1 [I-316]",
    "pKd": "< 3.70"
  }
]

Data credit: patent US20260373266A1
